Data origin: paper PMC8999638

Tested on: VERO E6 cells
Conditions used: read-out: VeroE6 CC50; VERO E6 cells, CellTiter-Glo
Readout label: CC50

[
  {
    "Molecule": "Clc1ccc(COC(Cn2ccnc2)c2ccc(Cl)cc2Cl)c(Cl)c1 (stereo not shown) [Miconazole nitrate]",
    "Result": "16.9 µM"
  }
]

* * *

Assayed target: RBD-ACE2 attachment (RBD of viral spike protein and ACE2 receptor) (Severe acute respiratory syndrome coronavirus 2, UniProt P0DTC2)
Assay notes: cell-based
Design: species or system SARS-CoV-2; human
Conditions used: HeLa, read-out: Positive Screening RBD Attachment Assay % Inhibition (20 μM)
Where a name gives a salt, the structure may show the parent alone.
Where inhibition at 20 µM equals or exceeds 60%, the correct label is rule met; where it does not, the label is rule not met.

[
  {
    "Compound": "O=C1C(O)=C([C@H]2CC[C@H](c3ccc(Cl)cc3)CC2)C(=O)c2ccccc21",
    "Group label": "rule not met"
  },
  {
    "Compound": "COC(=O)C1=C(C)NC(C)=C(C(=O)OCCN(C)Cc2ccccc2)C1c1cccc([N+](=O)[O-])c1 (stereo not drawn) [Nicardipine hydrochloride]",
    "Group label": "rule not met"
  },
  {
    "Compound": "CN(C)c1ccc(C(=C2C=CC(=[N+](C)C)C=C2)c2ccc(N(C)C)cc2)cc1",
    "Group label": "rule met"
  },
  {
    "Compound": "COCCOC(=O)C1=C(C)NC(C)=C(C(=O)OC(C)C)C1c1cccc([N+](=O)[O-])c1 (stereo not drawn)",
    "Group label": "rule met"
  },
  {
    "Compound": "CCOC(=O)C1=C(C)NC(C)=C(C(=O)OC)C1c1cccc(Cl)c1Cl (stereo not drawn)",
    "Group label": "rule met"
  },
  {
    "Compound": "Cc1cc(C#N)cc(C)c1Oc1nc(Nc2ccc(C#N)cc2)nc(N)c1Br",
    "Group label": "rule met"
  },
  {
    "Compound": "CC(=O)Oc1ccccc1C(=O)Nc1ncc([N+](=O)[O-])s1 [Nitazoxanide]",
    "Group label": "rule met"
  },
  {
    "Compound": "C[C@@H]1CCO[C@H]2Cn3cc(C(=O)NCc4ccc(F)cc4F)c(=O)c(O)c3C(=O)N12 [Dolutegravir sodium]",
    "Group label": "rule met"
  },
  {
    "Compound": "CCCCCCCCCCCCCCCC[N+](C)(C)CCN(Cc1ccc(OC)cc1)c1ncccn1 [Thonzonium Bromide]",
    "Group label": "rule met"
  }
]

* * *

Parameter pEC50: see the listing below.
Assayed target: RBD-ACE2 attachment (RBD of viral spike protein and ACE2 receptor) (Severe acute respiratory syndrome coronavirus 2, UniProt P0DTC2)
Assay notes: cell-based
Parameters: species or system SARS-CoV-2; human
pEC50: −log10 of the molar value.

[
  {
    "Compound": "C[C@@H]1CCO[C@H]2Cn3cc(C(=O)NCc4ccc(F)cc4F)c(=O)c(O)c3C(=O)N12 [Dolutegravir sodium]",
    "pEC50": 4.84
  },
  {
    "Compound": "Cc1cc(C#N)cc(C)c1Oc1nc(Nc2ccc(C#N)cc2)nc(N)c1Br [Etravirine]",
    "pEC50": 5.64
  },
  {
    "Compound": "CC1(C)CCC(CN2CCN(c3ccc(C(=O)NS(=O)(=O)c4ccc(NCC5CCOCC5)c([N+](=O)[O-])c4)c(Oc4cnc5[nH]ccc5c4)c3)CC2)=C(c2ccc(Cl)cc2)C1 [ABT-199]",
    "pEC50": 4.41
  }
]

* * *

Assayed target: UniProt P0DTC2
Assay notes: cell-based
Parameters: species or system SARS-CoV-2; human
Conditions used: HeLa, read-out: Positive Screening RBD Attachment Assay % Inhibition (100 μM)
Where a name gives a salt, the structure may show the parent alone.

[
  {
    "Compound": "CCOC(=O)C1=C(C)NC(C)=C(C(=O)OC)C1c1cccc(Cl)c1Cl (stereo not drawn) [Felodipine]",
    "inhibition at 100 µM": "96%"
  },
  {
    "Compound": "O=C1C(O)=C([C@H]2CC[C@H](c3ccc(Cl)cc3)CC2)C(=O)c2ccccc21 [Atovaquone]",
    "inhibition at 100 µM": "95%"
  },
  {
    "Compound": "CCCCCCCCCCCCCCCC[N+](C)(C)CCN(Cc1ccc(OC)cc1)c1ncccn1 [Thonzonium Bromide]",
    "inhibition at 100 µM": "99%"
  },
  {
    "Compound": "Nc1ccc(/N=N/c2ccccc2)c(N)n1 [Phenazopyridine hydrochloride]",
    "inhibition at 100 µM": "91%"
  },
  {
    "Compound": "CC[C@H](C)[C@H]1O[C@]2(CC[C@@H]1C)C[C@@H]1C[C@@H](C/C=C(\\C)[C@@H](O[C@H]3C[C@H](OC)[C@@H](O[C@H]4C[C@H](OC)[C@@H](O)[C@H](C)O4)[C@H](C)O3)[C@@H](C)/C=C/C=C3\\CO[C@@H]4[C@H](O)C(C)=C[C@@H](C(=O)O1)[C@]34O)O2 [Ivermectin]",
    "inhibition at 100 µM": "68%"
  },
  {
    "Compound": "CN(C)c1ccc(C(=C2C=CC(=[N+](C)C)C=C2)c2ccc(N(C)C)cc2)cc1 [Crystal Violet]",
    "inhibition at 100 µM": "99%"
  },
  {
    "Compound": "CCCCc1oc2ccc(NS(C)(=O)=O)cc2c1C(=O)c1ccc(OCCCN(CCCC)CCCC)cc1 [Dronedarone hydrochloride]",
    "inhibition at 100 µM": "93%"
  },
  {
    "Compound": "CC(C)(C)c1nc(-c2cccc(NS(=O)(=O)c3c(F)cccc3F)c2F)c(-c2ccnc(N)n2)s1 [Dabrafenib (GSK2118436), Dabrafenib]",
    "inhibition at 100 µM": "96%"
  },
  {
    "Compound": "C[C@@H]1CCO[C@H]2Cn3cc(C(=O)NCc4ccc(F)cc4F)c(=O)c(O)c3C(=O)N12 [Dolutegravir sodium]",
    "inhibition at 100 µM": "96%"
  },
  {
    "Compound": "CC(=O)Oc1ccccc1C(=O)Nc1ncc([N+](=O)[O-])s1 [Nitazoxanide]",
    "inhibition at 100 µM": "93%"
  },
  {
    "Compound": "OCCOc1ccc(/C(=C(/CCCl)c2ccccc2)c2ccccc2)cc1 [Ospemifene]",
    "inhibition at 100 µM": "68%"
  },
  {
    "Compound": "CC1(C)CCC(CN2CCN(c3ccc(C(=O)NS(=O)(=O)c4ccc(NCC5CCOCC5)c([N+](=O)[O-])c4)c(Oc4cnc5[nH]ccc5c4)c3)CC2)=C(c2ccc(Cl)cc2)C1 [ABT-199]",
    "inhibition at 100 µM": "96%"
  },
  {
    "Compound": "Cc1cc(C#N)cc(C)c1Oc1nc(Nc2ccc(C#N)cc2)nc(N)c1Br [Etravirine]",
    "inhibition at 100 µM": "90%"
  },
  {
    "Compound": "COCCOC(=O)C1=C(C)NC(C)=C(C(=O)OC(C)C)C1c1cccc([N+](=O)[O-])c1 (stereo not drawn) [Nimodipine]",
    "inhibition at 100 µM": "96%"
  },
  {
    "Compound": "COC(=O)C1=C(C)NC(C)=C(C(=O)OCCN(C)Cc2ccccc2)C1c1cccc([N+](=O)[O-])c1 (stereo not drawn) [Nicardipine hydrochloride]",
    "inhibition at 100 µM": "86%"
  }
]

* * *

Test system: NanoBiT
Assay notes: Negative screening HiBiT assay (NanoBiT activity)
Assay type: cell-based
Conditions used: 100 μM drug
Counter-ions that a name gives are not always drawn.
Could you mark each record True if its Negative Screening HiBiT Assay % Inhibition (100 μM) falls strictly under 40%, and False if it equals or exceeds it?

[
  {
    "Molecule": "OCCOc1ccc(/C(=C(/CCCl)c2ccccc2)c2ccccc2)cc1 [Ospemifene]",
    "Assayed target": "NanoBiT",
    "Group label": "True"
  },
  {
    "Molecule": "CCOC(=O)C1=C(C)NC(C)=C(C(=O)OC)C1c1cccc(Cl)c1Cl (centres unmarked) [Felodipine]",
    "Assayed target": "NanoBiT",
    "Group label": "False"
  },
  {
    "Molecule": "COCCOC(=O)C1=C(C)NC(C)=C(C(=O)OC(C)C)C1c1cccc([N+](=O)[O-])c1 (centres unmarked) [Nimodipine]",
    "Assayed target": "NanoBiT",
    "Group label": "False"
  },
  {
    "Molecule": "Cc1cc(C#N)cc(C)c1Oc1nc(Nc2ccc(C#N)cc2)nc(N)c1Br [Etravirine]",
    "Assayed target": "NanoBiT",
    "Group label": "True"
  },
  {
    "Molecule": "CC1(C)CCC(CN2CCN(c3ccc(C(=O)NS(=O)(=O)c4ccc(NCC5CCOCC5)c([N+](=O)[O-])c4)c(Oc4cnc5[nH]ccc5c4)c3)CC2)=C(c2ccc(Cl)cc2)C1 [ABT-199]",
    "Assayed target": "NanoBiT",
    "Group label": "False"
  },
  {
    "Molecule": "CCCC(=O)OCOC(=O)C1=C(C)NC(C)=C(C(=O)OC)C1c1cccc(Cl)c1Cl (centres unmarked) [Clevidipine butyrate]",
    "Assayed target": "NanoBiT",
    "Group label": "False"
  },
  {
    "Molecule": "Clc1ccc(COC(Cn2ccnc2)c2ccc(Cl)cc2Cl)c(Cl)c1 (centres unmarked) [Miconazole nitrate]",
    "Assayed target": "NanoBiT",
    "Group label": "True"
  },
  {
    "Molecule": "COC(=O)C1=C(C)NC(C)=C(C(=O)OCCN(C)Cc2ccccc2)C1c1cccc([N+](=O)[O-])c1 (centres unmarked) [Nicardipine hydrochloride]",
    "Assayed target": "NanoBiT",
    "Group label": "False"
  }
]
